Tested on: ATP;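 further: ATP exposure 15 min at 22 °C before imaging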
Test: switch fluorescence ratio, 500 uM ATP over buffer (Cy3 cluster intensity, sum of 5 cycles each) (fold (ratio)); higher = stronger signal-on switching upon ATP binding; sequences stand for … in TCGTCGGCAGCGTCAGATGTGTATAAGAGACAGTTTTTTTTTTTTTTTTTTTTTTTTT…TC
Conditions: aptamer strand: ATP DNA aptamer (quencher-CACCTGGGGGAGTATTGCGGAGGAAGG + anchor), 100 nM annealed; ATP concentration: 500 uM
Endpoint label: switch fluorescence ratio
Answers are plain numbers.

Worked cases, answers included:
seq_text=TTGGCGGAGT endpoint_label="switch fluorescence ratio" assay_result=1.01
seq_text=ATGATAAGGG endpoint_label="switch fluorescence ratio" assay_result=0.979
seq_text=CGAAGCTTAT endpoint_label="switch fluorescence ratio" assay_result=2.74
seq_text=TAAGAAGGGT endpoint_label="switch fluorescence ratio" assay_result=0.991
seq_text=TTCTGGGGCA endpoint_label="switch fluorescence ratio" assay_result=1.05

Go through the list and state switch fluorescence ratio for each entry.
1. CCAAAAGTAT
2. GGGGGGCTGT
3. TTACTGGACG
4. TAGAGACGGA
5. TTTGGGGCCT

Response given:
1. 1.03
2. 0.973
3. 1.07
4. 1.03
5. 1.06

The reported numbers originate from the supplement of paper PMC10126150.
